B1: CPEB3 Ribozyme (parent)
chain: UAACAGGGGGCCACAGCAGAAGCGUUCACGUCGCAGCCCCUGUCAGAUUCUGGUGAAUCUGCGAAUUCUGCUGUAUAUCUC

- Variants of: B1
- protocol_description: self-cleavage, relative activity (ratio to wild type); higher = more cleavage; in vitro, sequencing
Hi, to clarify the labels: rule met covers self-cleavage from 0.4 upward, rule not met covers anything below 0.4.

sequence_chain	discrete_label
UAACAGGGGGCCACAGCAGAGGCGUUCACGUCGCAGCCCCUGUCAGAUUCUGGUGAAUCUGAGAAUUCUGCUGUAUAUCUC [A21G C62A]	rule not met
UAACAGGGGGCCACAGCAGAAGCGUUCUCGUCGCAGCCCCUGUCCGAUUCUGGUGAAUCUGCGAAUUCUGCUGUAUAUCUC [A28U A45C]	rule not met
UAACAGGGGGCCACAGCAGAAGCGUUCAGGUCGCAGCCCCGGUCAGAUUCUGGUGAAUCUGCGAAUUCUGCUGUAUAUCUC [C29G U41G]	rule not met
UAACAGGGGGCCACAGCAGAAGCGUUCACGUCGCAGCCCCUGUCAGAUUCUGGCGAAUCUGUGAAUUCUGCUGUAUAUCUC [U54C C62U]	rule not met
UAACAGGGGGCCACAGCAGAAGCAUUCACGUCGCAGCCCCUGUCAGAUUCUGGUGAAUCGGCGAAUUCUGCUGUAUAUCUC [G24A U60G]	rule not met
UAACAGGGGGCCACAGCAGAAGCGUUCACGUCGCAGCCCCUGUCAGAUUCUGGCGAAUCUGCGUAUUCUGCUGUAUAUCUC [U54C A64U]	rule not met
UAACAGGGGGCCACAGCGGAAGCGUUCACGUCGCAGCCCCUGUCAGAUUCUGGUGAAUCUGCGAAUUCUGCUGUUUAUCUC [A18G A75U]	rule met
UAACAGGGGGCCACAGCAGAAGCGUUCACGUCGCAGCCCCUGUCAGAUUCUGGUGAAUCUGCGAAUCCUGCUUUAUAUCUC [U67C G73U]	rule met

Does the reported self-cleavage for UAACAGGGGGCCACAGCUGAAGCGUUCACGUCGCAGCCCCUGUCAGAUUCUGGUGAAUCUGCGAAUUCUGCUGAAUAUCUC [A18U U74A] fall at or above the 0.4 mark?
rule met

For this variant, is measured self-cleavage 0.4 or higher? UAACAGGGGGCCACAGCAGCAGCGUUCACGUCGCAGCCCCUGUCAGAUUCUGGUGAAUCUGCGGAUUCUGCUGUAUAUCUC [A20C A64G]
rule not met

Identify whether the reported self-cleavage of the following variant is 0.4 or greater: UAACAGGGGGCCACAGCCGGAGCGUUCACGUCGCAGCCCCUGUCAGAUUCUGGUGAAUCUGCGAAUUCUGCUGUAUAUCUC [A18C A20G]
rule met

Textbook exercise: given the entry UAACAGGGGGCCACAGCAGAAGCGUUCACCUCGCAGCCCCUGUCAGAUUCUGGUGAAUCUGCGUAUUCUGCUGUAUAUCUC [G30C A64U] , state whether its self-cleavage is greater than or equal to 0.4.
rule not met

API: above_or_equal(metric=self-cleavage, cutoff=0.4) for item UAACAGGGGGCCACAGCAGAAACGUUCACGUCGCAGCCCCUGUCAGAGUCUGGUGAAUCUGCGAAUUCUGCUGUAUAUCUC [G22A U48G]
rule not met

Assess whether reported self-cleavage for UGACAGGGGGCCACAGCAGAAGCGUUCACGUCGCGGCCCCUGUCAGAUUCUGGUGAAUCUGCGAAUUCUGCUGUAUAUCUC [A2G A35G] sits at 0.4 or higher.
rule met

Evaluate UUACAGGGGGCCACAGCAGAAGCGUUCACGUCUCAGCCCCUGUCAGAUUCUGGUGAAUCUGCGAAUUCUGCUGUAUAUCUC [A2U G33U] : self-cleavage at minimum 0.4?
rule not met

Where these numbers come from: the RNAGym collection of RNA variant scans (doi:10.1093/nar/gkz1192)
